Kindly supply the reported pIC50 values for the records listed here.
assay_system: human recombinant acetylcholinesterase (hAChE) (Homo sapiens, UniProt P22303)
Sequence (P22303 32-614): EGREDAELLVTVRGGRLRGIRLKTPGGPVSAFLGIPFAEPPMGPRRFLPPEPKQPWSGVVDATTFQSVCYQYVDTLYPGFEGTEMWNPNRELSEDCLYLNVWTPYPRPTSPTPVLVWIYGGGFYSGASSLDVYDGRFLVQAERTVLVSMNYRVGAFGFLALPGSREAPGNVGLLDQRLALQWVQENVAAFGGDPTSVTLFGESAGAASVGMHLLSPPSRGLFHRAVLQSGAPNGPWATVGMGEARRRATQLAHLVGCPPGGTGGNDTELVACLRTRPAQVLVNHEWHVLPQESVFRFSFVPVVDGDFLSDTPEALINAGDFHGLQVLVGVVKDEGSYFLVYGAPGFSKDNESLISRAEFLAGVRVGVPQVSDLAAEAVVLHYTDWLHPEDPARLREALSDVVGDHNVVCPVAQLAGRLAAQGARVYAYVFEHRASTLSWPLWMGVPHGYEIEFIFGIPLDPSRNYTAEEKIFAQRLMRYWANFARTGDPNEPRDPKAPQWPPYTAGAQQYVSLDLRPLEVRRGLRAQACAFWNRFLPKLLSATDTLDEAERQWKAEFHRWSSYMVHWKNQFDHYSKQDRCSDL
assay_explanation: biochemical
particulars: mean of at least three experiments; substrate ATCh; pH 7.4, 37 °C; read-out: hAChE IC50 ± SEM
pIC50 here: minus log base 10 of the concentration, concentration in moles per litre.

The recorded pIC50 for entry COc1ccc(NC(=O)NCCCCNc2c3c(nc4ccc(OC)cc24)CCCC3)cc1.O=C(O)C(O)C(O)C(=O)O [compound 18] equals 4.86

The recorded pIC50 for entry COc1ccc(NC(=O)NCCCCCCNc2c3c(nc4ccc(OC)cc24)CCCC3)cc1.O=C(O)C(O)C(O)C(=O)O [compound 20] equals 5.34

The recorded pIC50 for entry COc1ccc(NC(=S)NCCNc2c3c(nc4ccc(OC)cc24)CCCC3)cc1.O=C(O)C(O)C(O)C(=O)O [compound 9] equals 4.36

The recorded pIC50 for entry COc1ccc(NC(=S)NCCCCCCCNc2c3c(nc4ccc(OC)cc24)CCCC3)cc1.O=C(O)C(O)C(O)C(=O)O [compound 14] equals 5.40
